Tested on: Plasmodium falciparum
Test: Inhibitory concentration IC50 against Plasmodium falciparum K1 by [3H]hypoxanthine uptake over 24 hr
Assay type: functional, organism-based
pIC50: −log10 of the molar value.
Classify by measured pIC50: 1 if it is equal to or exceeds 7, 0 if it is smaller.

Solved entries:
NS(=O)(=O)c1ccc(Nc2c3ccc(Cl)cc3nc3cc(Cl)ccc23)cc1	0
Nc1ccc(Nc2c3ccccc3nc3ccccc23)cc1	0
CN(C)Cc1ccc(Nc2c3ccc(Cl)cc3nc3cc(Cl)ccc23)cc1	0
COc1ccc2nc3cc(Cl)ccc3c(Nc3cc(CN4CCCC4)c(O)c(CN4CCCC4)c3)c2n1	1
Nc1ccc2c(Nc3ccc(O)cc3)c3ccc(N)cc3nc2c1	1

Exercise: Quick check: does CS(=O)(=O)Nc1ccc(Nc2c3ccccc3nc3ccccc23)cc1 have pIC50 greater than or equal to 7?
Solution: 0

Exercise: Moving on to the next compound: COc1cc(NS(C)(=O)=O)ccc1Nc1c2ccccc2nc2ccccc12
Solution: 0

Exercise: Moving on to the next compound: CNc1ccc(Nc2c3ccccc3nc3ccccc23)cc1
Solution: 0

Exercise: Moving on to the next compound: COc1cc(Nc2c3ccccc3nc3ccccc23)ccc1NS(C)(=O)=O
Solution: 0

Exercise: Moving on to the next compound: CS(=O)(=O)Nc1ccc(Nc2c3ccccc3nc3cc(N)ccc23)cc1
Solution: 0

Exercise: Moving on to the next compound: COc1cc(Nc2c3ccc(N)cc3nc3cc(N)ccc23)ccc1NS(C)(=O)=O
Solution: 0

Exercise: Moving on to the next compound: Nc1ccc2c(Nc3ccc(CN4CCCCC4)cc3)c3ccc(N)cc3nc2c1
Solution: 0

Exercise: Moving on to the next compound: COc1ccc2c(Nc3ccc(S(N)(=O)=O)cc3)c3ccc(OC)cc3nc2c1
Solution: 0

Exercise: Moving on to the next compound: CN(C)c1ccc2c(Nc3ccccc3)c3ccc(N(C)C)cc3nc2c1
Solution: 0

Exercise: Moving on to the next compound: CN(C)c1ccc(Nc2c3ccccc3nc3cc(N)ccc23)cc1
Solution: 0

Exercise: Moving on to the next compound: CNC(=O)c1ccc(Nc2c3ccc(N)cc3nc3cc(N)ccc23)cc1
Solution: 1

Exercise: Moving on to the next compound: CN(C)c1ccc(Nc2c3ccccc3nc3ccccc23)cc1
Solution: 0

Exercise: Moving on to the next compound: COc1cc(NS(C)(=O)=O)ccc1Nc1c2ccccc2nc2cc(N)ccc12
Solution: 0

Exercise: Moving on to the next compound: CS(=O)(=O)Nc1ccc(Nc2c3ccc(N)cc3nc3cc(N)ccc23)cc1
Solution: 1

Exercise: Moving on to the next compound: CNc1ccc(Nc2c3ccccc3nc3cc(N)ccc23)cc1
Solution: 0

Exercise: Moving on to the next compound: Nc1ccc2c(=Nc3ccc(S(N)(=O)=O)cc3)c3ccc(N)cc3[nH]c2c1
Solution: 1

Exercise: Moving on to the next compound: CN(C)C(=O)c1ccc(Nc2c3ccc(N)cc3nc3cc(N)ccc23)cc1
Solution: 0

Exercise: Moving on to the next compound: Nc1ccc(Nc2c3ccc(N)cc3nc3cc(N)ccc23)cc1
Solution: 1

Exercise: Moving on to the next compound: COc1cc(N=c2c3ccccc3[nH]c3cc(N)ccc23)ccc1NS(C)(=O)=O
Solution: 0

Exercise: Moving on to the next compound: CN(C)Cc1ccc(Nc2c3ccc(N)cc3nc3cc(N)ccc23)cc1
Solution: 1

These data points were gathered from ChEMBL document CHEMBL1127825.
